B1: tRNA (parent)
chain: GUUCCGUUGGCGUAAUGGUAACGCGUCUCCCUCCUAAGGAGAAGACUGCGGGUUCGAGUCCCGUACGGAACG

Variants of: B1
Experiment: yeast fitness relative to wild type (ratio to wild type); higher = fitter; tRNA-Arg(CCU), competitive growth, 37 C, YPD
This sample holds only a part of the variants without activity.

| mutation descriptor | comparative sign | yeast fitness |
| --- | --- | --- |
| C31A G48C C61A A70G | ≤ | 0.5 |
| G25A G56A A69C | = | 0.773 |
| G23C G39C | = | 0.53 |
| C30G G44C G51C A69U | ≤ | 0.5 |
| U2C G12C A40C G67A | ≤ | 0.5 |
| G10C A21U G23C G56A C61A A65G | = | 0.567 |
| C46G G58A | = | 0.989 |
| A21G C27U A69U | = | 0.772 |
| C4A U47C | = | 0.773 |
| U7A U32G C33G A70U | ≤ | 0.5 |
| C27A U59C A69U | = | 0.713 |
| C11U A45U C61G A65C | ≤ | 0.5 |
| C33U A43G C66U | = | 0.544 |
| C5G U32C A45G C46A | = | 0.907 |
| U26C C31U A43G G63A | = | 0.611 |
| A20G G58C | = | 1 |
| U13C U16G C49G | = | 0.617 |
| C24A G68C | = | 0.643 |
| G6A G10C C29U C61A C62U A65U A69C | ≤ | 0.5 |
| C5G G67U | = | 0.859 |
| G6C A36C A40G G48A A65U C66U A69U | ≤ | 0.5 |
| C29G A57G | = | 0.715 |
| U32G G48C G58C | ≤ | 0.5 |
| G51C C61A | = | 0.516 |
| A15U G39A | = | 0.667 |
| C46A C61U | = | 0.901 |
| U16A U32C A37U C49G G63A A70U | ≤ | 0.5 |
| C24G C29G G39C C55A | = | 0.592 |
| A21G C62U | = | 0.924 |
| C11A U13A C31G C55U | ≤ | 0.5 |
| G23A C29G A45U C60G C61U | = | 0.557 |
| G12A C62U A70U | = | 0.695 |
| C22A C29U C55U | = | 0.579 |
| U2A C27A C49G A57U C66U | = | 0.639 |
| C5U G56C C60A | = | 0.641 |
| A37U A45U U47C C62G | ≤ | 0.5 |
| U7G C62U | = | 0.893 |
| A14C C24G C31A C33G G44C | = | 0.584 |
| C4A A14C U19A | ≤ | 0.5 |
| A45C G50C | = | 0.604 |
| C24A C34U A43U C49G C62G | ≤ | 0.5 |
| C4A C5U G39C A42C | ≤ | 0.5 |
| G12C A20C G58C A70U | ≤ | 0.5 |
| G23A G39C | = | 0.752 |
| C29U A40U G41C | ≤ | 0.5 |
| C11U A45U G58U | = | 0.562 |
